# Assay remarks: Single dose 300 mg / 450 mg pharmacokinetic, safety and tolerability study in healthy male and female subjects
# Experimental context: both, human, plasma, po, 450 mg
Measured attribute: concentration at 1 h (ng/mL)
One number for each entry, in ng/mL.

Find the recorded concentration at 1 h belonging to O=C1NCC2(c3ccc(Cl)c(Cl)c3)CC12 (stereo not shown) and report it. 337

###

# Assay remarks: Single rising oral dose (10-150 mg IR) safety, tolerance and pharmacokinetics in healthy male volunteers
# Format: in vivo, human
# Experimental context: male, human, plasma, oral, 150 mg, Geometric Mean; read-out: AUC0-t
Measured attribute: AUC(0-t) (ng·h/mL)
Give bare numbers, in ng·h/mL.

Find the recorded AUC(0-t) belonging to Clc1ccc([C@]23CNC[C@H]2C3)cc1Cl and report it. 8360

###

# Assay remarks: 13-week dog toxicity and toxicokinetic study
# Assay type: in vivo
# Experimental context: female, beagle, dog, in vivo, po, 6 mg/kg/day, females, 6 mg/kg/day, Day 0
Measured attribute: Tmax (h)
Numbers only, in h.

Find the recorded Tmax belonging to Clc1ccc([C@]23CNC[C@H]2C3)cc1Cl and report it. 1

###

# Assay remarks: 13-week dog toxicity and toxicokinetic study
# Format: in vivo
# Experimental context: male, beagle, dog, in vivo, po, 2 mg/kg/day, males, 2 mg/kg/day, Day 86
Measured attribute: Cmax (µg/mL)
Answers are plain numbers, in µg/mL.

Find the recorded Cmax belonging to Clc1ccc([C@]23CNC[C@H]2C3)cc1Cl and report it. 0.753

###

# Assay remarks: Single dose 300 mg / 450 mg pharmacokinetic, safety and tolerability study in healthy male and female subjects
# Experimental context: both, human, plasma, oral, 300 mg, harmonic mean of half-life of lactam
Measured attribute: half-life

Find the recorded half-life belonging to O=C1NCC2(c3ccc(Cl)c(Cl)c3)CC12 (stereo not shown) [EB-10101] and report it. 14.3 h

###

# Assay remarks: 13-week dog toxicity and toxicokinetic study
# Assay type: in vivo
# Experimental context: male, beagle, dog, in vivo, po, 6 mg/kg/day, males, 6 mg/kg/day, Day 86
Measured attribute: Tmax (h)
One number for each entry, in h.

Find the recorded Tmax belonging to Clc1ccc([C@]23CNC[C@H]2C3)cc1Cl [amitifadine] and report it. 1

###

# Assay remarks: 13-week rat toxicity and toxicokinetic study
# Assay type: in vivo
# Experimental context: female, Crl:CD(SD)IGS BR, rat, in vivo, po, 25 mg/kg/day, females, 25 mg/kg/day, Day 87; read-out: AUC0-24
Measured attribute: AUC(0-t) (ng·h/mL)
One number for each entry, in ng·h/mL.

Find the recorded AUC(0-t) belonging to Clc1ccc([C@]23CNC[C@H]2C3)cc1Cl and report it. 30200

###

# Assay remarks: 12-month dog toxicity and toxicokinetic study
# Type: in vivo
# Experimental context: female, beagle, dog, plasma, po, 6 mg/kg/day, females, 6 mg/kg/day, Day 358
Measured attribute: Tmax (h)
One number for each entry, in h.

Find the recorded Tmax belonging to Clc1ccc([C@]23CNC[C@H]2C3)cc1Cl [amitifadine] and report it. 1

###

# Assay remarks: Single-dose (25 mg) gender study in males and females (DOV-947-005)
# Assay type: in vivo, human
# Experimental context: female, human, in vivo; single oral dose 25 mg; Females (N = 38)
Measured attribute: Tmax (h)
Answers are plain numbers, in h.

Find the recorded Tmax belonging to Clc1ccc([C@]23CNC[C@H]2C3)cc1Cl and report it. 1.38

###

# Assay remarks: Single dose 300 mg / 450 mg pharmacokinetic, safety and tolerability study in healthy male and female subjects
# Experimental context: male, human, plasma, po, 300 mg
Measured attribute: concentration at 2 h (ng/mL)
Give bare numbers, in ng/mL.

Find the recorded concentration at 2 h belonging to O=C1NCC2(c3ccc(Cl)c(Cl)c3)CC12 (stereo not shown) and report it. 1040

###

# Assay remarks: Single dose 300 mg / 450 mg pharmacokinetic, safety and tolerability study in healthy male and female subjects
# Experimental context: female, human, plasma, po, 450 mg
Measured attribute: concentration at 0.5 h (ng/mL)
One number for each entry, in ng/mL.

Find the recorded concentration at 0.5 h belonging to O=C1NCC2(c3ccc(Cl)c(Cl)c3)CC12 (stereo not shown) and report it. 35.2

###

# Assay remarks: Single rising oral dose (10-150 mg IR) safety, tolerance and pharmacokinetics in healthy male volunteers
# Type: in vivo, human
# Experimental context: male, human, plasma, oral, 25 mg, Median; read-out: AUC0-t
Measured attribute: AUC(0-t) (ng·h/mL)
Numbers only, in ng·h/mL.

Find the recorded AUC(0-t) belonging to Clc1ccc([C@]23CNC[C@H]2C3)cc1Cl [amitifadine] and report it. 1190

###

# Assay remarks: 13-week mouse toxicity and toxicokinetic study
# Experimental context: female, Crl:CD-1(ICR) BR, in vivo, po, 10 mg/kg/day, Cmax
Measured attribute: Cmax

Find the recorded Cmax belonging to Clc1ccc([C@]23CNC[C@H]2C3)cc1Cl [amitifadine] and report it. 296 ng/mL

###

# Assay remarks: in vivo
# Experimental context: female, Crl:CD-1(ICR) BR, mouse, po, 30 mg/kg/day, AUC0-24
Measured attribute: AUC(0-t)
Give the number first and the unit second.

Find the recorded AUC(0-t) belonging to Clc1ccc([C@]23CNC[C@H]2C3)cc1Cl and report it. 9920 ng·h/mL

###

# Assay remarks: Single dose 300 mg / 450 mg pharmacokinetic, safety and tolerability study in healthy male and female subjects
# Experimental context: female, human, plasma, po, 300 mg
Measured attribute: Cmax
Give the number first and the unit second.

Find the recorded Cmax belonging to Clc1ccc([C@]23CNC[C@H]2C3)cc1Cl and report it. 3260 ng/mL

Next:
Find the recorded Cmax belonging to O=C1NCC2(c3ccc(Cl)c(Cl)c3)CC12 (centres unmarked) and report it. 2320 ng/mL

###

# Assay remarks: Single dose 300 mg / 450 mg pharmacokinetic, safety and tolerability study in healthy male and female subjects
# Experimental context: male, human, plasma, po, 300 mg
Measured attribute: concentration at 1 h
Give the number first and the unit second.

Find the recorded concentration at 1 h belonging to O=C1NCC2(c3ccc(Cl)c(Cl)c3)CC12 (stereo not shown) and report it. 0.404 µg/mL

###

# Assay remarks: Single dose 300 mg / 450 mg pharmacokinetic, safety and tolerability study in healthy male and female subjects
# Experimental context: female, human, plasma, po, 450 mg
Measured attribute: concentration at 18 h (ng/mL)
One number for each entry, in ng/mL.

Find the recorded concentration at 18 h belonging to O=C1NCC2(c3ccc(Cl)c(Cl)c3)CC12 (stereo not shown) [EB-10101] and report it. 2140

###

# Assay remarks: Multiple-dose safety and PK study 25 mg BID and 50 mg BID for 10 days
# Type: in vivo, human
# Experimental context: male, human, in vivo, 25 mg, 25 mg BID; Day 1; healthy male subjects; mean (SD)
Measured attribute: Tmax (min)
One number for each entry, in min.

Find the recorded Tmax belonging to Clc1ccc([C@]23CNC[C@H]2C3)cc1Cl [amitifadine] and report it. 54

###

# Assay remarks: 2-week dog toxicity and toxicokinetic study
# Assay type: in vivo
# Experimental context: female, beagle, in vivo, po, 10 mg/kg/day, females, 10 mg/kg/day, Day 13
Measured attribute: Cmax (ng/mL)
Give bare numbers, in ng/mL.

Find the recorded Cmax belonging to Clc1ccc([C@]23CNC[C@H]2C3)cc1Cl [amitifadine] and report it. 2800

###

# Assay remarks: Rabbit developmental toxicity study with toxicokinetics
# Experimental context: female, New Zealand white, in vivo, po, oral gavage GD 7-20, read-out: NOAEL for maternal toxicity
Measured attribute: NOAEL (mg/kg/day)
Give bare numbers, in mg/kg/day.

Find the recorded NOAEL belonging to Clc1ccc([C@]23CNC[C@H]2C3)cc1Cl and report it. 10

###

# Assay remarks: in vivo
# Experimental context: male, Crl:CD-1(ICR) BR, mouse, po, 150 mg/kg/day, Cmax
Measured attribute: Cmax (ng/mL)
Answers are plain numbers, in ng/mL.

Find the recorded Cmax belonging to Clc1ccc([C@]23CNC[C@H]2C3)cc1Cl and report it. 5610

###

# Assay remarks: 2-week rat toxicology and toxicokinetic study
# Format: in vivo
# Experimental context: female, Crl:CD (SD)IGS BR, rat, in vivo, po, 40 mg/kg/day, females, 40 mg/kg/day, Day 13; read-out: AUC0-24
Measured attribute: AUC(0-t) (µg·h/mL)
Numbers only, in µg·h/mL.

Find the recorded AUC(0-t) belonging to Clc1ccc([C@]23CNC[C@H]2C3)cc1Cl [amitifadine] and report it. 32.9

###

# Assay remarks: Single dose 300 mg / 450 mg pharmacokinetic, safety and tolerability study in healthy male and female subjects
# Experimental context: male, human, plasma, po, 300 mg
Measured attribute: concentration at 3 h (ng/mL)
One number for each entry, in ng/mL.

Find the recorded concentration at 3 h belonging to O=C1NCC2(c3ccc(Cl)c(Cl)c3)CC12 (stereo not shown) [EB-10101] and report it. 1490
